Experiment: Intrinsic clearance in mouse liver microsomes
Use 60 µL/min/mg as the dividing line for microsomal CLint, with the line itself on the criterion met side and lower values as criterion not met.

>>> df
                                   compound        group_label
0  Cc1noc2c1-c1ccc(-c3ccc(=O)n(C)c3)cc1N(c1ccc(C#N)cc1)CC2C (stereo unspecified)      criterion met
1  Cc1nnc2n1-c1ccc(-c3cnn(C)c3)cc1N(c1ccc(Cl)cc1)CC2      criterion met
2     Cc1noc2c1-c1ccccc1N(c1ccc(C#N)cc1)CC2  criterion not met
3  CCNC(=O)CC1CN(c2ccc(Cl)cc2)c2ccccc2-n2c(C)nnc21 (stereo unspecified)  criterion not met
4  Cc1noc2c1-c1ccc(-c3cnn(C)c3)cc1N(c1ccc(C#N)cc1)CC2CC(N)=O (stereo unspecified)  criterion not met
5  Cc1noc2c1-c1ccc(-c3ccc(N)nc3)cc1N(c1ccc(C#N)cc1)CC2      criterion met

====

Assayed target: Bromodomain-containing protein 2 (Homo sapiens, UniProt P25440)
Sequence (P25440 whole entry): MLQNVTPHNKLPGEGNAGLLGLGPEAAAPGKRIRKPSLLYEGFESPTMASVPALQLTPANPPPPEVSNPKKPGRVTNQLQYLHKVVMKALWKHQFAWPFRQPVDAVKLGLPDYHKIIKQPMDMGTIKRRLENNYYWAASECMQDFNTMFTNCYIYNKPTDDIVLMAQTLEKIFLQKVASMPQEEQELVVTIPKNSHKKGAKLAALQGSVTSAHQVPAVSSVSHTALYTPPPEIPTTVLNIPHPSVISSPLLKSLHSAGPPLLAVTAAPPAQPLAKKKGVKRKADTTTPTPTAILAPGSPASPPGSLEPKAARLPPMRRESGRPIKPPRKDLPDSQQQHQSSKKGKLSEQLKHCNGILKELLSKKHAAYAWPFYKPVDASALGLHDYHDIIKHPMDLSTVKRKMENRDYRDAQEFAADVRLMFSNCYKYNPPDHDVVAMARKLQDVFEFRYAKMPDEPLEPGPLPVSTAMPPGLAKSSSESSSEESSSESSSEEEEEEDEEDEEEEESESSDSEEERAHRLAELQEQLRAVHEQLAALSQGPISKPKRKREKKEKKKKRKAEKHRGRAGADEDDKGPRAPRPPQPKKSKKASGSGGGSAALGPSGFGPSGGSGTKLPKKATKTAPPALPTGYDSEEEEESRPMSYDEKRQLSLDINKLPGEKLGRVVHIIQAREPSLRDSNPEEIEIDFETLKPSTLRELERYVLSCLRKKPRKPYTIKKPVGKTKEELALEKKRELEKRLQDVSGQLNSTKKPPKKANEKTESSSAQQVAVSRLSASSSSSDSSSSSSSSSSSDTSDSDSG
Experiment: Inhibition of BRD2 BD2 (unknown origin) using biotinylated JQ1 analog as substrate measured after 20 mins by AlphaLISA assay
pIC50: −log10 of the molar value.
Endpoint name: pIC50

In [3]: df
Out[3]:
                               input_smiles  value_measured
0  Cc1nnc2n1-c1ccc(-c3ccc(N)nc3)cc1N(c1ccc(Cl)cc1)C[C@H]2C            8.52

====

Experiment: Intrinsic clearance in rat liver microsomes
Binary classification by microsomal CLint, with 70 µL/min/mg as an inclusive lower bound for 1.0; all other cases are 0.0.

In [3]: df
Out[3]:
                                   compound  group_label
0  CCNC(=O)CC1CN(c2ccc(Cl)cc2)c2ccccc2-n2c(C)nnc21 (stereo not given)          1.0
1  Cc1nnc2n1-c1ccccc1N(c1ccc(Cl)cc1)C(C)C2 (stereo not given)          0.0
2  Cc1nnc2n1-c1ccc(-c3ccc(N)nc3)cc1N(c1ccc(Cl)cc1)C[C@H]2C          0.0
3  Cc1nnc2n1-c1ccc(-c3cnn(C)c3)cc1N(c1ccc(Cl)cc1)CC2          1.0
4     Cc1noc2c1-c1ccccc1N(c1ccc(C#N)cc1)CC2          0.0

====

Experiment: Cmax in rat at 10 mg/kg, po
Assay type: ADME, organism-based
Set-up: route oral, dose 10 mg/kg
Setup conditions: in vivo
Endpoint name: Cmax

                               input_smiles  value_measured
0  Cc1nnc2n1-c1ccc(-c3ccc(N)nc3)cc1N(c1ccc(Cl)cc1)C[C@H]2C          290 nM

====

Assayed target: Bromodomain-containing protein 3 (Homo sapiens, UniProt Q15059)
Sequence (Q15059 whole entry): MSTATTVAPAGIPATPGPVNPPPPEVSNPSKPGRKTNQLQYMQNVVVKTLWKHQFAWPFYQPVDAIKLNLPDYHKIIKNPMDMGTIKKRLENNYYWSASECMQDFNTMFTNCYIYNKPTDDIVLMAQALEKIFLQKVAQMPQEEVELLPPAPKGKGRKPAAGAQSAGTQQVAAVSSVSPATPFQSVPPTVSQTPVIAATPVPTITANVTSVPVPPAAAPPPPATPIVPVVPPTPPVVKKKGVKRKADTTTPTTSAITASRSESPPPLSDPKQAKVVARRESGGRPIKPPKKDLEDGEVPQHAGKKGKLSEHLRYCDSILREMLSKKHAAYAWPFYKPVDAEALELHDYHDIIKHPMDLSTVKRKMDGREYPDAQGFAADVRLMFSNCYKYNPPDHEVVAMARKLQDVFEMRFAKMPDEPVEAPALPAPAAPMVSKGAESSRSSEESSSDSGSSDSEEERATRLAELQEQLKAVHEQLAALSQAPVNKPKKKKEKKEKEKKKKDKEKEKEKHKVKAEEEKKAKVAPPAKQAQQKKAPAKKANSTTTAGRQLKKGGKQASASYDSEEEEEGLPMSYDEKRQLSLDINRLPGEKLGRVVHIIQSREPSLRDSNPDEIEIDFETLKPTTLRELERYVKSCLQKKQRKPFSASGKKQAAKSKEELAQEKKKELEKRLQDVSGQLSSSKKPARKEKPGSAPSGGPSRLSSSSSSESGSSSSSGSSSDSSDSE
Experiment: Inhibition of BRD3 BD2 (unknown origin) using biotinylated JQ1 analog as substrate measured after 20 mins by AlphaLISA assay
Endpoint name: IC50 (nM)

>>> print(df.to_string())
                               input_smiles  unit_info  value_measured
0  Cc1nnc2n1-c1ccc(-c3ccc(N)nc3)cc1N(c1ccc(Cl)cc1)C[C@H]2C         nM               3

====

Assayed target: Bromodomain testis-specific protein (Homo sapiens, UniProt Q58F21)
Experiment: Inhibition of BRDT BD2 (unknown origin) using biotinylated JQ1 analog as substrate measured after 20 mins by AlphaLISA assay
Endpoint name: IC50 (nM)

>>> print(df.to_string())
                               input_smiles  unit_info  value_measured
0  Cc1nnc2n1-c1ccc(-c3ccc(N)nc3)cc1N(c1ccc(Cl)cc1)C[C@H]2C         nM               3

Data origin: ChEMBL document CHEMBL4715706
